In this section we review reported pKa values for a set of molecules.
assay: physchem
Assay metric: pKa

{"columns": ["Molecule", "Assay metric", "Readout value"],
 "data": [
  ["CC1CCc2c(N3CCC(O)CC3)c(F)cc3c(=O)c(C(=O)O)cn1c23 (stereo unspecified)", "pKa", 6.8],
  ["C[C@@H]1CN(c2c(F)c(N)c3c(=O)c(C(=O)O)cn(C4CC4)c3c2F)C[C@H](C)N1", "pKa", 6.43],
  ["CCn1cc(C(=O)O)c(=O)c2cc(F)c(N3CCN(C)CC3)cc21", "pKa", 6.15],
  ["CCn1cc(C(=O)O)c(=O)c2cc(F)c(N3CCNCC3)cc21", "pKa", 6.54],
  ["COc1c(N2CCNC(C)C2)c(F)cc2c(=O)c(C(=O)O)cn(C3CC3)c12 (stereo unspecified)", "pKa", 5.97],
  ["N[C@@H]1[C@H]2CN(c3nc4c(cc3F)c(=O)c(C(=O)O)cn4-c3ccc(F)cc3F)C[C@@H]12", "pKa", 4.45]
]}

* * *

test system: Streptococcus pyogenes; assay: Minimum inhibitory concentration against Streptococcus pyogenes ATCC 19615; format: functional
In this section we review reported MIC values for a set of compounds.

{"columns": ["Compound", "MIC / µg/mL"],
 "data": [
  ["O=C(O)c1cn(C2CC2)c2cc(N3CCNCC3)c(F)cc2c1=O", 0.5],
  ["COc1c(N2C[C@@H]3CCCN[C@@H]3C2)c(F)cc2c(=O)c(C(=O)O)cn(C3CC3)c12", 0.25],
  ["COc1c(N2CCNC(C)C2)c(F)cc2c(=O)c(C(=O)O)cn(C3CC3)c12 (stereo not given)", 0.25],
  ["C[C@H]1CCc2c(N3CCC(O)CC3)c(F)cc3c(=O)c(C(=O)O)cn1c23.N=C(N)NCCC[C@H](N)C(=O)O.O.O.O.O", 0.06],
  ["C[C@H]1COc2c(N3CCN(C)CC3)c(F)cc3c(=O)c(C(=O)O)cn1c23.C[C@H]1COc2c(N3CCN(C)CC3)c(F)cc3c(=O)c(C(=O)O)cn1c23.O", 1]
]}

* * *

test system: Mus musculus; assay: Efficacy against mice infected with MRSA-33 upon s.c. administration; type: functional; conditions: sc
In this section we review reported ED50 values for a set of compounds.

{"columns": ["Compound", "Sign", "ED50 / mg/kg"],
 "data": [
  ["C[C@H]1CCc2c(N3CCC(O)CC3)c(F)cc3c(=O)c(C(=O)O)cn1c23.N=C(N)NCCC[C@H](N)C(=O)O.O.O.O.O", "=", 38.3],
  ["CN[C@H](CC(C)C)C(=O)N[C@H]1C(=O)N[C@@H](CC(N)=O)C(=O)N[C@H]2C(=O)N[C@H]3C(=O)N[C@H](C(=O)N[C@H](C(=O)O)c4cc(O)cc(O)c4-c4cc3ccc4O)[C@H](O)c3ccc(c(Cl)c3)Oc3cc2cc(c3O[C@@H]2O[C@H](CO)[C@@H](O)[C@H](O)[C@H]2O[C@H]2C[C@](C)(N)[C@H](O)[C@H](C)O2)Oc2ccc(cc2Cl)[C@H]1O [VANCOMYCIN]", ">", 3.7]
]}

* * *

system: Streptococcus sanguinis; assay: Minimum inhibitory concentration against Streptococcus sanguis ATCC 10556; type: functional
In this section we review reported MIC values for a set of molecules.
Assay metric: MIC

{"columns": ["Molecule", "Readout value"],
 "data": [
  ["C[C@H]1CCc2c(N3CCC(O)CC3)c(F)cc3c(=O)c(C(=O)O)cn1c23.N=C(N)NCCC[C@H](N)C(=O)O.O.O.O.O", "0.25 µg/mL"],
  ["C[C@H]1COc2c(N3CCN(C)CC3)c(F)cc3c(=O)c(C(=O)O)cn1c23.C[C@H]1COc2c(N3CCN(C)CC3)c(F)cc3c(=O)c(C(=O)O)cn1c23.O", "2 µg/mL"],
  ["COc1c(N2CCNC(C)C2)c(F)cc2c(=O)c(C(=O)O)cn(C3CC3)c12 (stereo not given)", "0.5 µg/mL"],
  ["O=C(O)c1cn(C2CC2)c2cc(N3CCNCC3)c(F)cc2c1=O", "2 µg/mL"],
  ["COc1c(N2C[C@@H]3CCCN[C@@H]3C2)c(F)cc2c(=O)c(C(=O)O)cn(C3CC3)c12", "0.5 µg/mL"]
]}
